Provenance of the data: patent US20160159919A1

# tested.system: T1, cynomolgus EREG (Biacore analyte) (cynomolgus monkey, UniProt O14944 63-108 (human entry), limits assumed)
# T1 construct: also called cynomolgus monkey EREG; cEREG
# T1 sequence (O14944 other isoform, or with tags, fused parts or gaps limits assumed): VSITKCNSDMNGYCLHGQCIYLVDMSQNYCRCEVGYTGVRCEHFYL
# procedure.summary: SPR (Biacore T100); KD for monkey EREG over KD for human EREG
measured.attribute: cEREG (nM)/hEREG (nM) (ratio)
Give the number; ratio is assumed, so skip it.

Guide cases for cEREG (nM)/hEREG (nM), answers given:
chimeric antibody EP27 (cH-G1/cL-k) (antibody, human IgG1, kappa, V domains shown, mouse EP27 variable regions with human IgG1 (G1) and kappa constant regions; also called chimeric EP27) VH: EDQLQQSGAELVKPGASVKLSCTASGFNIKDTYIQWVKLRPEQGLEWIGRIDPLNGNTKYVPKFQGKATITADTSSNTAYLQLSSLTSEDTAVYYCVRSGTLFDFWGQGTTLTVSS VL: DIQMTQSPSSLSASLGGKVTITCKASQDIHKYIAWYQHKPGKGPRLLIQYTSTLQPGIPSRFSGSGSGRDYSFSISNLEPEDIATYYCLQYDNLRTFGGGTKLEIKR	40.9
H240-G1d/L73-k (antibody, human IgG1, kappa, V domains shown) VH: QDQLVQSGAEVKKPGASVKVSCKASGFNIKDTYIQWVRQAPGQGLEWMGRIDPLRKQTKYREKFEGRVTITADTSTNTAYMELSSLRSEDTAVYYCVRSGREFDYWGQGTLVTVSS VL: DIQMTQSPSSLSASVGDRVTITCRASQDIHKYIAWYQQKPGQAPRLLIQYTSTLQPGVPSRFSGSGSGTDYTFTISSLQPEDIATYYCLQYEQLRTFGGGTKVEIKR	3.6
H206-G1d/L73-k (antibody, human IgG1, kappa, V domains shown) VH: QDQLVQSGAEVKNPGASVKVSCKASGFNIKDTYIQWVRQAPGQGLEWMGRIDPLRRQTKYREKFEGRVTITADTSTNTAYMELSSLRSEDTAVYYCVRSGREFDFWGQGTLVTVSS VL: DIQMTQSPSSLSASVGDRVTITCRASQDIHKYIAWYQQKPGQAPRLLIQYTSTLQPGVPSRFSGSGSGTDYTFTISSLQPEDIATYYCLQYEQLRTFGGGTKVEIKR	3.4

// query Quick one: give measured cEREG (nM)/hEREG (nM) for H240-G1d/L53-k (antibody, human IgG1, kappa, V domains shown) VH: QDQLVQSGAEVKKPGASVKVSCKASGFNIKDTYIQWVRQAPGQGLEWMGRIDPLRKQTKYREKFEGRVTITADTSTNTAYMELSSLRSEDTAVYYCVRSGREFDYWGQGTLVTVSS VL: DIQMTQSPSSLSASVGDRVTITCRASQDIHKYIAWYQQKPGQAPRLLIQYTSTLQPGVPSRFSGSGSGTDYTFTISSLQPEDIATYYCLQYDNLRTFGGGTKVEIKR
// result 5.4
